STUDY TARGET: Protein translocase subunit SecA (Escherichia coli (strain K12)) (UniProt P10408)
Sequence (P10408 whole entry): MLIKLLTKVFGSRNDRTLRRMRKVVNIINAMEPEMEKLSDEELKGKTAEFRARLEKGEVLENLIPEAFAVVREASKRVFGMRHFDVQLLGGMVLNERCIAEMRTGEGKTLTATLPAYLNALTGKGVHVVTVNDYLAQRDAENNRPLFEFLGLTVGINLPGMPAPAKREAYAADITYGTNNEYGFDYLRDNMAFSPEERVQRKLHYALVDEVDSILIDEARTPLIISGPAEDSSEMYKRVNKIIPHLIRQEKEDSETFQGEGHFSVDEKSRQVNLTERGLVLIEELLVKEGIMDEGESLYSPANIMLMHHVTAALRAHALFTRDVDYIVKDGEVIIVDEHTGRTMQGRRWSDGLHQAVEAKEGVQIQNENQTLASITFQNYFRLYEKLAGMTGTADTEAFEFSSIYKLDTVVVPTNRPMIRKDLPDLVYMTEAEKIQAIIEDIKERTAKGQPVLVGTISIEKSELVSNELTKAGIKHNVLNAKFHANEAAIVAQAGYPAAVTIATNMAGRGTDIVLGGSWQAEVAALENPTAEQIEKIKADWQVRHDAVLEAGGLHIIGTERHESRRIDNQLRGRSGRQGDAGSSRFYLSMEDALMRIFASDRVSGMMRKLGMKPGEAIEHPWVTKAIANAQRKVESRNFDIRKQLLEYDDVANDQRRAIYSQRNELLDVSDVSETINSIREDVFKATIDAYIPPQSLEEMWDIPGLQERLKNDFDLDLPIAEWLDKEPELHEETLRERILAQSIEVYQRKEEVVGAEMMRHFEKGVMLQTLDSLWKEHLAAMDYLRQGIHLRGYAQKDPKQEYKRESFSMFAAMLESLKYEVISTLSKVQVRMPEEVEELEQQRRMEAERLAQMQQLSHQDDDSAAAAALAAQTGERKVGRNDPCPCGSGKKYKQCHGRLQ
PROTOCOL TEXT: Assay to Identify E. coli SecA ATPase Inhibitors
Type: functional
Parameters: scale not given: direction of the effect not stated beside the values
EXPERIMENTAL PARAMETERS: 30 µM
Measured potencies and affinities stand elsewhere.
For each of the molecules below, state its Percent Effect.
Return type: number; implicit unit %.

## Task Dear colleague, I am looking for the recorded Percent Effect of the following molecule: Cc1cnn(CC2CCCCN2CCCS(N)(=O)=O)c1 (configuration not stated)
## Result -1.01

## Task Look up Percent Effect: CCS(=O)(=O)N1CCC[C@]2(C(=O)N(C)C)CN(c3ncccn3)C[C@@H]2C1
## Result 2.18

## Task I have this molecule here, CCN1CCC2(CCC(=O)N2Cc2cccc(C)n2)CC1 , and I need its recorded Percent Effect.
## Result -2.48

## Task Would you mind telling me what Percent Effect value was observed for CC(NC(=O)CCCOc1ccccc1Cl)c1ccncc1 (configuration not stated) ?
## Result -5.33

## Task What Percent Effect value was documented for this molecule, Cc1ccc(C(N)c2cccc(S(C)(=O)=O)c2)cc1 (configuration not stated) ?
## Result -4.76

## Task Looking for the measured Percent Effect of CCN(CC)C1CCN(C(=O)NCc2nncn2CC)CC1 , can you help?
## Result -3.6

## Task I'd like to know its Percent Effect. The molecule in question is O=C(Cc1ccccc1F)N1CCN(C(=O)c2cccc(F)c2)CC1
## Result 0.735

## Task Which Percent Effect is reported for this molecule? Cc1cc(C)c(OCC(=O)NS(=O)(=O)c2c(C)noc2C)c(C)c1
## Result -3.67

## Task Quick one: Percent Effect of CN(C(=O)C1CSCN1S(=O)(=O)c1ccc(F)cc1)C1CC1 (configuration not stated) ?
## Result -6.46

## Task Please report the recorded Percent Effect for CC(O)CN(CC(=O)NC(=O)NC1CC1)c1ccccc1 (configuration not stated) .
## Result -7.41

## Task Reported Percent Effect, molecule CCOc1ccnc(N2CCN(C(=O)c3cc(Cl)c[nH]3)CC2)n1 : ____
## Result -4.52

## Task Look at this molecule and give its reported Percent Effect. O=C(C(CNCc1ccncc1)c1ccccc1)N1CCOCC1 (configuration not stated)
## Result 0.622

---

STUDY TARGET: Arginase-2, mitochondrial (Homo sapiens) (UniProt P78540)
Sequence (P78540 whole entry): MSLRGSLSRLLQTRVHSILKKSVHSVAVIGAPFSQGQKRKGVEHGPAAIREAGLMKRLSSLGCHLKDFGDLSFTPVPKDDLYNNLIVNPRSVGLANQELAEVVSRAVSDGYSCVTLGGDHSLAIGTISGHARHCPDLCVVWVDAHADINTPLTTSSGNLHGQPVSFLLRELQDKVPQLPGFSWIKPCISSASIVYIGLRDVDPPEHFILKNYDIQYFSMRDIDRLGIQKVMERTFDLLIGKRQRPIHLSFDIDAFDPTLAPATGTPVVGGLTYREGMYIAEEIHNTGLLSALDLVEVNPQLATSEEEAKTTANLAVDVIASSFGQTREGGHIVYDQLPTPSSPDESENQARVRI
PROTOCOL TEXT: in vitro enzyme assay to detect the production of urea directly proportional to the activity of Arginase II; note: in the data most compounds retested in dose-response had high values
Assay type: functional
Design: scale not given: direction of the effect not stated beside the values
EXPERIMENTAL PARAMETERS: 33.3 µM
REPORTED METRIC: Percent Effect (%)
The reply should be a number in %, with the unit left off.

## Task Can you look up the measured Percent Effect of CC(C)COCC(NC(=O)c1ccccn1)c1ccco1 (configuration not stated) for me?
## Result -8.02

## Task Looking for the measured Percent Effect of CN1[C@H](CN2CCCC2)C[C@@H]2CN(C(=O)Cc3cccs3)CC[C@@H]21 , can you help?
## Result 0

## Task For the compound shown here, CCN(CC)C(=O)c1nnc2ccc(N3CCOCC3)cc2n1 , give the reported Percent Effect.
## Result -7.57

## Task Which Percent Effect is reported for this compound? O=C(Nc1cc(F)ccc1OCC1CCCO1)c1ccccn1 (configuration not stated)
## Result 3.16

## Task I would be grateful if you could share the reported Percent Effect for Cc1nsc(N2CCCN(c3nc(C4CC4)ns3)CC2)n1 .
## Result 19.1

## Task Percent Effect lookup needed for COc1ccc(C2=CCN(C(=O)CN(C)CC(N)=O)CC2)cc1 , thanks.
## Result 6.46

## Task // query Percent Effect value for entry CC(=O)N1CCCN(C(=O)NCc2ccccn2)CC1
## Result 3.6

## Task Recorded Percent Effect of CCn1cc(NC(=O)NCC(c2cccc(F)c2)N(C)C)cn1 (configuration not stated) , please.
## Result 0.383

## Task Entry under review: Cn1ccnc1CNC(=O)N1CCCC(Cc2nccn2C)C1 (configuration not stated) . Reported Percent Effect?
## Result -0.833

## Task Name the reported Percent Effect value associated with the compound CCN(CC)S(=O)(=O)N1CCCC(c2cccc(C(=O)O)c2)C1 (configuration not stated)
## Result 0.952

## Task Return reported Percent Effect; argument: CC(Cn1ccnc1)NC(=O)NCCc1ccc2c(c1)OCCO2 (configuration not stated)
## Result 0.712

## Task # input compound: CN(C)c1ncc(-c2cc(C(=O)O)n(CC3CC3)c2)cn1 ; wanted: its Percent Effect
## Result -0.833
